Target: human CMV DNA polymerase UL54 (Human cytomegalovirus (strain AD169) (HHV-5) (Human herpesvirus 5))
Assay: CMV polymerase biochemical assay (molecular beacon-based)
Please respond with reported log10(IC50) for every item in the list.
Plainly stated, the numbers are log10 of IC50 given in nM.

CNS(=O)(=O)C1(CN2CCn3c(ccc(C(=O)NCc4ccc(C#N)cc4)c3=O)C2=O)CC1 [Example 75-2]    0.43
COc1cc(CNC(=O)c2ccc3n(c2=O)CCN(CC2(S(=O)(=O)C4CC4)CC2)C3=O)ccc1Cl [Example 3-5]    0.30
N#Cc1ccc(CNC(=O)c2ccc3n(c2=O)CCN(CC2(S(=O)(=O)C4COC4)CC2)C3=O)cc1 [Example 28]    0.43
N#Cc1ccc(CNC(=O)c2ccc3n(c2=O)CCN(CC2(S(=O)(=O)[C@H]4CC4(F)F)CC2)C3=O)cc1 (single isomer, unassigned) [Example 100-1]    0.15
N#Cc1ccc(CNC(=O)c2ccc3n(c2=O)CCN(CC2(S(=O)(=O)C4CC4(F)F)CC2)C3=O)cc1F (centres unmarked) [Example 98-2]    0.08
C[C@H](CCO)S(=O)(=O)C1(CN2CCn3c(ccc(C(=O)NCc4ccc(C#N)cc4)c3=O)C2=O)CC1 (single isomer, unassigned) [Example 9]    0.23
CN1CCC(S(=O)(=O)C2(CN3CCn4c(ccc(C(=O)NCc5ccc(Cl)cc5)c4=O)C3=O)CC2)C1 (centres unmarked) [Example 80-2]    0.99
O=C(NCc1ccc(Cl)cc1)c1ccc2n(c1=O)CCN(CC1(S(=O)(=O)N3CCC3)CC1)C2=O [Example 87]    0.08

I'm hoping you can list log10(IC50) for every compound here, please.
1. C[S@@+]([O-])C1(CN2CCn3c(ccc(C(=O)NCc4ccc(C#N)cc4)c3=O)C2=O)CC1 [Example 68-2]
2. COCC1(S(=O)(=O)C2(CN3CCn4c(ccc(C(=O)NCc5ccc(C#N)cc5)c4=O)C3=O)CC2)CC1 [Example 15]
3. CC(CCO)S(=O)(=O)C1(CN2CCn3c(ccc(C(=O)NCc4ccc(Cl)cc4)c3=O)C2=O)CC1 (centres unmarked) [Example 4]
4. CC1(CN2CCn3c(ccc(C(=O)NCc4ccc(Cl)cc4)c3=O)C2=O)COC1 [Example 57-1]
5. CC(C)(CO)S(=O)(=O)C1(CN2CCn3c(ccc(C(=O)NCc4ccc(Cl)cc4)c3=O)C2=O)CC1 [Example 180]
6. Cc1cc(C(=O)NCc2ccc(C#N)c(F)c2)c(=O)n2c1C(=O)N(CC1(S(C)(=O)=O)CC1)CC2 [Example 86-2]

Solution:
1.79
-0.15
-0.40
3.42
-0.70
0.66
